Biological target: T1, Dengue 2 virus capsid protein (Dengue virus 2), P29990
T1 chain: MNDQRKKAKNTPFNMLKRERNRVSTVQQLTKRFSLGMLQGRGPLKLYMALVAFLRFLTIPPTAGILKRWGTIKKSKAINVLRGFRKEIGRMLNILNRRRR
metric: Kd (nM)

INSERT INTO results (binder, display_unit, measured_number) VALUES
  ('RVTQMNLNDRLASLYDKV (modifications not checked) [peptide identified in the Sequence Listing as SEQ ID NO: 1]', 'nM', 1.67);
